Conditions: in methanol, 273.15 K
READOUT: solubility (mole fraction)
Reply briefly: the number, and no unit.

Incoming: Could you share which solubility (mole fraction) value was measured for Nc1cccc2c1CN(C1CCC(=O)NC1=O)C2=O (stereo unspecified) ?
Outgoing: 0.00019

###

Conditions: in isopropanol, 308.15 K
READOUT: solubility (mole fraction)

Incoming: Could you share which solubility (mole fraction) value was measured for Nc1cccc2c1CN(C1CCC(=O)NC1=O)C2=O (stereo unspecified) ?
Outgoing: 0.000114

###

Conditions: in isopropanol, 278.15 K
READOUT: solubility (mole fraction)
Reply briefly: the number, and no unit.

Incoming: Could you share which solubility (mole fraction) value was measured for Nc1cccc2c1CN(C1CCC(=O)NC1=O)C2=O (stereo unspecified) ?
Outgoing: 3.2e-05

###

Conditions: in ethyl acetate, 303.15 K
READOUT: solubility (mole fraction)
Reply briefly: the number, and no unit.

Incoming: Could you share which solubility (mole fraction) value was measured for Nc1cccc2c1CN(C1CCC(=O)NC1=O)C2=O (stereo unspecified) ?
Outgoing: 0.000168

###

Conditions: in acetonitrile, 273.15 K
READOUT: solubility (mole fraction)

Incoming: Could you share which solubility (mole fraction) value was measured for Nc1cccc2c1CN(C1CCC(=O)NC1=O)C2=O (stereo unspecified) ?
Outgoing: 0.000444

###

Conditions: in methanol, 308.15 K
READOUT: solubility (mole fraction)

Incoming: Could you share which solubility (mole fraction) value was measured for Nc1cccc2c1CN(C1CCC(=O)NC1=O)C2=O (stereo unspecified) ?
Outgoing: 0.000326

###

Settings: in isopropanol, 288.15 K
READOUT: solubility (mole fraction)
Reply briefly: the number, and no unit.

Incoming: Could you share which solubility (mole fraction) value was measured for Nc1cccc2c1CN(C1CCC(=O)NC1=O)C2=O (stereo unspecified) ?
Outgoing: 5.2e-05

###

Conditions: in acetonitrile, 298.15 K
READOUT: solubility (mole fraction)
Reply briefly: the number, and no unit.

Incoming: Could you share which solubility (mole fraction) value was measured for Nc1cccc2c1CN(C1CCC(=O)NC1=O)C2=O (stereo unspecified) ?
Outgoing: 0.000536

###

Conditions: in isopropanol, 318.15 K
READOUT: solubility (mole fraction)
Reply briefly: the number, and no unit.

Incoming: Could you share which solubility (mole fraction) value was measured for Nc1cccc2c1CN(C1CCC(=O)NC1=O)C2=O (stereo unspecified) ?
Outgoing: 0.00016

###

Conditions: in methanol, 288.15 K
READOUT: solubility (mole fraction)

Incoming: Could you share which solubility (mole fraction) value was measured for Nc1cccc2c1CN(C1CCC(=O)NC1=O)C2=O (stereo unspecified) ?
Outgoing: 0.000237

###

Conditions: in acetonitrile, 288.15 K
READOUT: solubility (mole fraction)
Reply briefly: the number, and no unit.

Incoming: Could you share which solubility (mole fraction) value was measured for Nc1cccc2c1CN(C1CCC(=O)NC1=O)C2=O (stereo unspecified) ?
Outgoing: 0.000496

###

Details: in ethyl acetate, 313.15 K
READOUT: solubility (mole fraction)
Reply briefly: the number, and no unit.

Incoming: Could you share which solubility (mole fraction) value was measured for Nc1cccc2c1CN(C1CCC(=O)NC1=O)C2=O (stereo unspecified) ?
Outgoing: 0.000206

###

Conditions: in methanol, 293.15 K
READOUT: solubility (mole fraction)
Reply briefly: the number, and no unit.

Incoming: Could you share which solubility (mole fraction) value was measured for Nc1cccc2c1CN(C1CCC(=O)NC1=O)C2=O (stereo unspecified) ?
Outgoing: 0.000256

###

Settings: in ethyl acetate, 318.15 K
READOUT: solubility (mole fraction)
Reply briefly: the number, and no unit.

Incoming: Could you share which solubility (mole fraction) value was measured for Nc1cccc2c1CN(C1CCC(=O)NC1=O)C2=O (stereo unspecified) ?
Outgoing: 0.000226

###

Conditions: in isopropanol, 303.15 K
READOUT: solubility (mole fraction)
Reply briefly: the number, and no unit.

Incoming: Could you share which solubility (mole fraction) value was measured for Nc1cccc2c1CN(C1CCC(=O)NC1=O)C2=O (stereo unspecified) ?
Outgoing: 9.5e-05

###

Details: in ethyl acetate, 288.15 K
READOUT: solubility (mole fraction)
Reply briefly: the number, and no unit.

Incoming: Could you share which solubility (mole fraction) value was measured for Nc1cccc2c1CN(C1CCC(=O)NC1=O)C2=O (stereo unspecified) ?
Outgoing: 0.00012

###

Conditions: in ethyl acetate, 298.15 K
READOUT: solubility (mole fraction)
Reply briefly: the number, and no unit.

Incoming: Could you share which solubility (mole fraction) value was measured for Nc1cccc2c1CN(C1CCC(=O)NC1=O)C2=O (stereo unspecified) ?
Outgoing: 0.000152

###

Conditions: in acetonitrile, 278.15 K
READOUT: solubility (mole fraction)
Reply briefly: the number, and no unit.

Incoming: Could you share which solubility (mole fraction) value was measured for Nc1cccc2c1CN(C1CCC(=O)NC1=O)C2=O (stereo unspecified) ?
Outgoing: 0.000458

###

Settings: in methanol, 298.15 K
READOUT: solubility (mole fraction)

Incoming: Could you share which solubility (mole fraction) value was measured for Nc1cccc2c1CN(C1CCC(=O)NC1=O)C2=O (stereo unspecified) ?
Outgoing: 0.000276

###

Conditions: in ethyl acetate, 283.15 K
READOUT: solubility (mole fraction)
Reply briefly: the number, and no unit.

Incoming: Could you share which solubility (mole fraction) value was measured for Nc1cccc2c1CN(C1CCC(=O)NC1=O)C2=O (stereo unspecified) ?
Outgoing: 0.000105

###

Details: in methanol, 318.15 K
READOUT: solubility (mole fraction)

Incoming: Could you share which solubility (mole fraction) value was measured for Nc1cccc2c1CN(C1CCC(=O)NC1=O)C2=O (stereo unspecified) ?
Outgoing: 0.000383

###

Details: in isopropanol, 273.15 K
READOUT: solubility (mole fraction)
Reply briefly: the number, and no unit.

Incoming: Could you share which solubility (mole fraction) value was measured for Nc1cccc2c1CN(C1CCC(=O)NC1=O)C2=O (stereo unspecified) ?
Outgoing: 2.5e-05

###

Settings: in isopropanol, 298.15 K
READOUT: solubility (mole fraction)
Reply briefly: the number, and no unit.

Incoming: Could you share which solubility (mole fraction) value was measured for Nc1cccc2c1CN(C1CCC(=O)NC1=O)C2=O (stereo unspecified) ?
Outgoing: 8e-05

###

Conditions: in methanol, 313.15 K
READOUT: solubility (mole fraction)
Reply briefly: the number, and no unit.

Incoming: Could you share which solubility (mole fraction) value was measured for Nc1cccc2c1CN(C1CCC(=O)NC1=O)C2=O (stereo unspecified) ?
Outgoing: 0.000351

###

Details: in ethyl acetate, 273.15 K
READOUT: solubility (mole fraction)
Reply briefly: the number, and no unit.

Incoming: Could you share which solubility (mole fraction) value was measured for Nc1cccc2c1CN(C1CCC(=O)NC1=O)C2=O (stereo unspecified) ?
Outgoing: 8e-05

###

Details: in isopropanol, 313.15 K
READOUT: solubility (mole fraction)
Reply briefly: the number, and no unit.

Incoming: Could you share which solubility (mole fraction) value was measured for Nc1cccc2c1CN(C1CCC(=O)NC1=O)C2=O (stereo unspecified) ?
Outgoing: 0.000136

###

Settings: in ethyl acetate, 308.15 K
READOUT: solubility (mole fraction)
Reply briefly: the number, and no unit.

Incoming: Could you share which solubility (mole fraction) value was measured for Nc1cccc2c1CN(C1CCC(=O)NC1=O)C2=O (stereo unspecified) ?
Outgoing: 0.000186

###

Conditions: in ethyl acetate, 278.15 K
READOUT: solubility (mole fraction)
Reply briefly: the number, and no unit.

Incoming: Could you share which solubility (mole fraction) value was measured for Nc1cccc2c1CN(C1CCC(=O)NC1=O)C2=O (stereo unspecified) ?
Outgoing: 9.2e-05

###

Conditions: in acetonitrile, 318.15 K
READOUT: solubility (mole fraction)
Reply briefly: the number, and no unit.

Incoming: Could you share which solubility (mole fraction) value was measured for Nc1cccc2c1CN(C1CCC(=O)NC1=O)C2=O (stereo unspecified) ?
Outgoing: 0.000623

###

Details: in ethyl acetate, 293.15 K
READOUT: solubility (mole fraction)

Incoming: Could you share which solubility (mole fraction) value was measured for Nc1cccc2c1CN(C1CCC(=O)NC1=O)C2=O (stereo unspecified) ?
Outgoing: 0.000136

Ref: BigSolDB 2.1
